Target desc: Dual specificity protein phosphatase 3 (Homo sapiens)
Sequence (P51452 whole entry): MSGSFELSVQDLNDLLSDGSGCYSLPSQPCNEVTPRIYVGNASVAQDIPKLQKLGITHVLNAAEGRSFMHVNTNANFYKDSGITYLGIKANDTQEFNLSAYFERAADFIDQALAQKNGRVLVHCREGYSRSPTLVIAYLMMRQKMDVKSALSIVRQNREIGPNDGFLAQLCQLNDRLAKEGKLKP
pKi: −log10 of the molar value.
Endpoint name: pKi

Need pKi, item O=C(O)c1cc(-c2ccc(-c3ccc(F)c(C(F)(F)F)c3)cc2C2CCCCC2)on1
< 4.30

---

Target desc: Receptor-type tyrosine-protein phosphatase C (Homo sapiens)
Sequence (P08575 whole entry): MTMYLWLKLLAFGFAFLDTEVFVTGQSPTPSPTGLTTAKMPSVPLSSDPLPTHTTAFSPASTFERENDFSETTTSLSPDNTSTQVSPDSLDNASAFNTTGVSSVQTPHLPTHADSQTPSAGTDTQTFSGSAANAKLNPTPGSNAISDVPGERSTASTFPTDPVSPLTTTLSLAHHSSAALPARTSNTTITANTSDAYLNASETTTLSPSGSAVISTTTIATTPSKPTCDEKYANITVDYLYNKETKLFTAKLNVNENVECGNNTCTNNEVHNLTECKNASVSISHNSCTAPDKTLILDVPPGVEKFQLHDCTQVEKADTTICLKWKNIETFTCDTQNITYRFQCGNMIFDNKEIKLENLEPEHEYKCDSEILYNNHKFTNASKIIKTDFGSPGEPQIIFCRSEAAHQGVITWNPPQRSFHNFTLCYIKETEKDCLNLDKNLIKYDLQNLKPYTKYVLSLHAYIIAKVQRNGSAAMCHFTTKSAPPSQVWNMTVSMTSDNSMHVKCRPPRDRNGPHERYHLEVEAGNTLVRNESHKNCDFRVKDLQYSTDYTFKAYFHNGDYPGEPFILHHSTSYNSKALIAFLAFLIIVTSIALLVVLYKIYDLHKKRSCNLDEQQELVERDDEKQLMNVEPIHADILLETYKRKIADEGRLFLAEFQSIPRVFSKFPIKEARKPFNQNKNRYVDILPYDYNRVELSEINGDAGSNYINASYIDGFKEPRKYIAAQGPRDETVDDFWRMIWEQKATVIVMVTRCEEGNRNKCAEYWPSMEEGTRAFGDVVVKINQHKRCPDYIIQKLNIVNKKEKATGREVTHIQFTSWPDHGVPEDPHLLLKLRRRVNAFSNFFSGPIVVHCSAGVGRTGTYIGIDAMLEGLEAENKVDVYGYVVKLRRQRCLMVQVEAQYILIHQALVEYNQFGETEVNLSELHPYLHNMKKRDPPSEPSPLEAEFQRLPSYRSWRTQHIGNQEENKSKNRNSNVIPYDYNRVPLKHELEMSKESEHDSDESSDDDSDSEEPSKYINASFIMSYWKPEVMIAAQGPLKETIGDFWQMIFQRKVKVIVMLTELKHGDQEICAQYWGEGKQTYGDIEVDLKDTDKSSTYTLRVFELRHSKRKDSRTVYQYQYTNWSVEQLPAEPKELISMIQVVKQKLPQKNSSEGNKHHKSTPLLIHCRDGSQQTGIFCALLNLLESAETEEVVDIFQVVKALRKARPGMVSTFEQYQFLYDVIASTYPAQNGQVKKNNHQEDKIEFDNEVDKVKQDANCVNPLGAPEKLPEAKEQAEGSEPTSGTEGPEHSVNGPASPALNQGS
Endpoint name: pKi
To interpret pKi, take it as minus log10 of a concentration measured in moles per litre.

Fill in the blank: the reported pKi of O=C(O)c1cc(-c2ccc(-c3ccc(F)c(C(F)(F)F)c3)cc2C2CCCCC2)on1 is ____.
5.11

---

Target protein (sequence): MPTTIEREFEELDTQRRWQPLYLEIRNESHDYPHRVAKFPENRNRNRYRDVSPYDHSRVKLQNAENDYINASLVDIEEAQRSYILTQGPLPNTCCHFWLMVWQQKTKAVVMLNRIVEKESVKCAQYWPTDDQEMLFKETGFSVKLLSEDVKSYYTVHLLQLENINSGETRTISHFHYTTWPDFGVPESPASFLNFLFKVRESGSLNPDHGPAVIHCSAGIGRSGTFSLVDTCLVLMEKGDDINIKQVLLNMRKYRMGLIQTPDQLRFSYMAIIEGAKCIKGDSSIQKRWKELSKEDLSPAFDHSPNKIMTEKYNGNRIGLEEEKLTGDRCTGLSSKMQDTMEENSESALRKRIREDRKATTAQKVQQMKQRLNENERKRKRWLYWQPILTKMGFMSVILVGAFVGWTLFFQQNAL
Endpoint name: Ki

Could you tell me which Ki is on file for O=C(O)c1cc(-c2ccc(-c3ccc(F)c(C(F)(F)F)c3)cc2C2CCCCC2)on1 ?
> 50 µM

---

Target desc: TYR_PHOSPHATASE_2 domain-containing protein (Mycobacterium tuberculosis (strain CDC 1551 / Oshkosh), UniProt P96830)
Sequence (P96830 whole entry): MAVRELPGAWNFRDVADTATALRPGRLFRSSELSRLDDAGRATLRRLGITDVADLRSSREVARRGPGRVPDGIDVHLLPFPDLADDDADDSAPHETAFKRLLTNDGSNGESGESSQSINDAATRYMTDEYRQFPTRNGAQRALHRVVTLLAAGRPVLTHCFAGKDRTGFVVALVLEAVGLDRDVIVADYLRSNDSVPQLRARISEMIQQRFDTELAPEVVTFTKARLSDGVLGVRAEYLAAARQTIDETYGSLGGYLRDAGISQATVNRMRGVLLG
Protocol description: Determination of Inhibitor Ki
Recorded conditions: pH 7.4; 22 °C
Recorded Ki for the following compounds
The reply should read as a number followed by its unit.

Look over these answered cases.
[
  {
    "Compound": "O=C1CC(c2ccc(-c3cccc(C(F)(F)F)c3)cc2)S(=O)(=O)N1 (centres undefined)",
    "Ki": "8800 nM"
  },
  {
    "Compound": "O=C(O)c1cc(-c2ccc(-c3cccc(C(F)(F)F)c3)cc2)on1",
    "Ki": "2500 nM"
  },
  {
    "Compound": "CC(C)c1cc(-c2cccc(C(F)(F)F)c2)ccc1-c1cc(C(=O)O)no1",
    "Ki": "850 nM"
  }
]

Could you now consider this next compound?
I would be grateful if you could share the reported Ki for CC(C)c1cc(-c2ccc(F)c(C(F)(F)F)c2)ccc1-c1cc(C(=O)O)no1 .
500 nM
